Target System: T1, mature myostatin (human, murine, rat, chicken, turkey, …, UniProt O08689 268-376 (mouse entry))
T1 construct: also called growth differentiation factor-8; GDF-8
T1 sequence: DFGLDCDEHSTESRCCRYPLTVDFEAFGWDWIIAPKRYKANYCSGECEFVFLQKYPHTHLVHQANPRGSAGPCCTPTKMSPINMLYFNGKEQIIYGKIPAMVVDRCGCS
Procedure Summary: ELISA, myostatin coated, periprep Fab titrated, anti-human-kappa-AP
Experimental: ELISA plates are coated with myostatin diluted to 4 ug/ml in carbonate buffer (50 mM NaHCO₃ pH 8.3) and 50 μL added per well. Plates are covered with sealing tape and incubate overnight at 4° C. […] The absorbance or OD at 560 nm is read. […] The concentration of Fabs is determined by a quantitative ELISA using an anti-Fd antibody (Sheep anti-Fd Biodesign) to capture protein and goat anti-human-kappa-AP (Southern Biotech) to detect. […]
Parameter: binding result

Binder	binding result
C12 Fab with the Asn residue in CDRL3 replaced with threonine (Fab, V domains shown, Periprep Fab) VH: QLQLQESGPGLVKPSETLSLTCTVSGFSLRKVGSSVSWIRQPPGKGLEWIGHIYWDDDKRLNPSLRNRVTISVDTSKNQFSLKLSSVTAADTAVYYCARRAITTVIGGGTFDLWGQGTLVTVSS VL: DIQMTQSPSSLSASVGDRVTITCSASSSISYMHWYQQKPGKAPKLLIYDTSKLARGVPSRFSGSGSGTDFTLTISSLQPEDFATYYCQQWYLTPLTFGGGTKVEIKR	binds
C12 Fab with the Asn residue in CDRL3 replaced with glycine (Fab, V domains shown, Periprep Fab) VH: QLQLQESGPGLVKPSETLSLTCTVSGFSLRKVGSSVSWIRQPPGKGLEWIGHIYWDDDKRLNPSLRNRVTISVDTSKNQFSLKLSSVTAADTAVYYCARRAITTVIGGGTFDLWGQGTLVTVSS VL: DIQMTQSPSSLSASVGDRVTITCSASSSISYMHWYQQKPGKAPKLLIYDTSKLARGVPSRFSGSGSGTDFTLTISSLQPEDFATYYCQQWYLGPLTFGGGTKVEIKR	binds
C12 Fab with the Asn residue in CDRL3 replaced with proline (Fab, V domains shown, Periprep Fab) VH: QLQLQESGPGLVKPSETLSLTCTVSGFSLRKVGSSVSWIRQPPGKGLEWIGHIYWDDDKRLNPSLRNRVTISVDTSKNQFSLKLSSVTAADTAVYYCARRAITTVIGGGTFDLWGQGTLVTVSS VL: DIQMTQSPSSLSASVGDRVTITCSASSSISYMHWYQQKPGKAPKLLIYDTSKLARGVPSRFSGSGSGTDFTLTISSLQPEDFATYYCQQWYLPPLTFGGGTKVEIKR	binds
C12 Fab with the Asn residue in CDRL3 replaced with phenylalanine (Fab, V domains shown, Periprep Fab) VH: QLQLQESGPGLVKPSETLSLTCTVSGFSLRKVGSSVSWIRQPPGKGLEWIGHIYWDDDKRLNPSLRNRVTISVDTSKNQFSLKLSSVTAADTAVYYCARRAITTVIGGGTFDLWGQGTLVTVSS VL: DIQMTQSPSSLSASVGDRVTITCSASSSISYMHWYQQKPGKAPKLLIYDTSKLARGVPSRFSGSGSGTDFTLTISSLQPEDFATYYCQQWYLFPLTFGGGTKVEIKR	binds

The binder listed as C12 Fab with the Asn residue in CDRL3 replaced with lysine (Fab, V domains shown, Periprep Fab) VH: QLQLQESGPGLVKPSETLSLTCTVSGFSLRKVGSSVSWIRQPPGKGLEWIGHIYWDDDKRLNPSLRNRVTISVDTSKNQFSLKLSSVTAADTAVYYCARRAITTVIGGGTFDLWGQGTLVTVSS VL: DIQMTQSPSSLSASVGDRVTITCSASSSISYMHWYQQKPGKAPKLLIYDTSKLARGVPSRFSGSGSGTDFTLTISSLQPEDFATYYCQQWYLKPLTFGGGTKVEIKR has a reported binding result of binds
